Test system: ACHN
MEASUREMENT_PROTOCOL: NCI tumour cell line growth inhibition, 48 h
Activity calls are given as the source filed them. Cut-off read from the data, not from the text of the source: active = GI50 up to about 1.1 µM and inactive = higher.
Labels: active, inactive

- COMPOUND: "COc1cc(CC2CCc3nc(N)nc(N)c3C2)cc(OC)c1OC (stereo not given)"
  CATEGORY_LABEL: "active"
- COMPOUND: "Cc1ccc2oc3c(c(Br)c(Br)n3C)c(=O)c2c1"
  CATEGORY_LABEL: "inactive"
- COMPOUND: "C=C1COC(O)(C2OCOC(C3CC(=O)NC(=O)C3)C2O)C1C (stereo not given)"
  CATEGORY_LABEL: "active"
- COMPOUND: "CC1(C)OC(=O)C(=C2CCC(C(=O)Nc3cccc(C(F)(F)F)c3)N2)C(=O)O1 (stereo not given)"
  CATEGORY_LABEL: "inactive"
- COMPOUND: "CC(C)OC(=O)C(NC(=O)C(CC(=O)OCc1ccccc1)NC(=O)OCc1ccccc1)NC(=O)C1C(C)(C)CCC1(C)C (stereo not given)"
  CATEGORY_LABEL: "inactive"
- COMPOUND: "Clc1ccc(-c2nnc(-c3c(Cl)c(Cl)c(Cl)c(Cl)c3-c3nc4ccccc4[nH]3)o2)cc1"
  CATEGORY_LABEL: "inactive"
- COMPOUND: "COc1cc(C/N=c2/nc(N(C)C)ss2)cc(OC)c1OC"
  CATEGORY_LABEL: "inactive"
- COMPOUND: "COc1ccc(C2=Nn3c(nnc(Cc4ccc(Cl)cc4)c3=O)SC2)cc1"
  CATEGORY_LABEL: "inactive"
- COMPOUND: "Nc1ccc(C(=O)N/C(=C\\c2ccc3c(c2)OCO3)c2nc3ccccc3s2)cc1"
  CATEGORY_LABEL: "inactive"
- COMPOUND: "CCCCc1ccc(Nc2nc(OC)c3ncn(C4CC(O)C(CO)O4)c3n2)cc1 (stereo not given)"
  CATEGORY_LABEL: "inactive"

* * *

Recorded GI50, one value per entry.
Test system: ACHN
MEASUREMENT_PROTOCOL: NCI tumour cell line growth inhibition, 48 h
Active and inactive are the calls of the source. No stated cut-off is given here; in the data, active = GI50 up to about 1.1 µM and inactive = higher.

- MOLECULE: "O=C1C(CN2CCCCC2)CCC1CN1CCCCC1 (stereo not given)"
  GI50: "26 µM (inactive)"
- MOLECULE: "C=C1C(=O)CC2C(=O)C(C)(O)CC/C=C(\\C)C(=O)CC12 (stereo not given)"
  GI50: "10.2 µM (inactive)"
- MOLECULE: "CC1CC[C@]2(C(=O)O)CCC3(C)C(=CCC4[C@@]5(C)CC[C@H](OS(=O)(=O)c6ccccc6)C(C)(C)C5CC[C@]43C)[C@@H]2[C@H]1C (stereo not given in full)"
  GI50: "52.2 µM (inactive)"
- MOLECULE: "CC1CC2C(=O)N(c3ccccc3)C(=O)C2c2c1c1ccccc1n2Cc1ccccc1 (stereo not given)"
  GI50: "39.1 µM (inactive)"
- MOLECULE: "O=C(NCCc1ccccc1)c1c(O)nc2ccccc2c1O"
  GI50: "> 100 µM (inactive)"
- MOLECULE: "COc1ccccc1/C=C1\\CCC(CN2CCOCC2)C1=O (stereo not given)"
  GI50: "16.1 µM (inactive)"
- MOLECULE: "O=c1sc2ccccc2n1CC1CS1 (stereo not given)"
  GI50: "> 100 µM (inactive)"
- MOLECULE: "COc1nc(C(Cl)(Cl)Cl)c(Cl)c(O)c1Cl"
  GI50: "> 100 µM (inactive)"
- MOLECULE: "C/C(CCOC1CCCCO1)=C(\\C)[Si](C)(C)C (stereo not given)"
  GI50: "> 100 µM (inactive)"
- MOLECULE: "CC(=O)OC1OC2C(NC(=O)OC(C)(C)C)C1CC2(OCc1ccccc1)OCc1ccccc1 (stereo not given)"
  GI50: "22.4 µM (inactive)"
- MOLECULE: "CC(C)C(=O)CC(Sc1ccc(N)cc1)c1ccccc1 (stereo not given)"
  GI50: "20 µM (inactive)"
- MOLECULE: "COc1cccc2cc(C(=O)Nc3ccccn3)c(=N)oc12"
  GI50: "60.3 µM (inactive)"
- MOLECULE: "NC(=O)N(O)c1cccc(Br)c1"
  GI50: "> 100 µM (inactive)"
- MOLECULE: "COC(=O)C1(C)CCC(c2ccc(C)cc2)=C(CC(=O)O)C1 (stereo not given)"
  GI50: "> 100 µM (inactive)"
- MOLECULE: "O=C(Nc1nnc(S)[nH]1)C(=O)C(c1cnc2ccc([N+](=O)[O-])cc2n1)[N+](=O)[O-] (stereo not given)"
  GI50: "94.8 µM (inactive)"
- MOLECULE: "CC(C)C1C(=O)N2CCCC2C2(O)OC(NC(=O)C3C=C4c5cccc6[nH]cc(c56)CC4N(C)C3)(C(C)C)C(=O)N12 (stereo not given)"
  GI50: "18.9 µM (inactive)"
- MOLECULE: "CC(OCc1ccccc1)C(NC(=O)C1CSSCC(NC(=O)C(Cc2ccccc2)NC(=O)OCc2ccccc2)C(=O)NC(Cc2ccccc2)C(=O)NC(Cc2cn(C=O)c3ccccc23)C(=O)NC(CCCCNC(=O)OCc2ccccc2)C(=O)NC(C(C)OCc2ccccc2)C(=O)N1)C(N)=O (stereo not given)"
  GI50: "> 59.6 µM (inactive)"
- MOLECULE: "COc1cc2ccc(C(C)NCC#N)cc2cc1OC (stereo not given)"
  GI50: "> 100 µM (inactive)"
- MOLECULE: "O=C(O)C1=CN(c2ccncc2)C(c2ccco2)=CC1c1ccccc1[N+](=O)[O-] (stereo not given)"
  GI50: "2.1 µM (inactive)"
- MOLECULE: "CCOC(=O)/C=C(\\C(=O)OCC)n1ccc(=O)n(Cc2cn(COCCOC(C)=O)nn2)c1=O"
  GI50: "7.05 µM (inactive)"

* * *

Test system: NCI/ADR-RES
MEASUREMENT_PROTOCOL: NCI tumour cell line growth inhibition, 48 h
Calls of active or inactive are those of the source. Cut-off read from the data, not from the text of the source: active = GI50 up to about 1.1 µM and inactive = higher.
MEASUREMENT_KIND: GI50

- COMPOUND: "CCCCSC1=N/C(=C\\c2ccccc2O)C(=O)N1"
  EXPERIMENTAL_RESULT: "66.7 µM (inactive)"
- COMPOUND: "OC[C@H](O)[C@@H](OCc1ccccc1)[C@H](NCc1ccccc1)c1cccs1"
  EXPERIMENTAL_RESULT: "> 100 µM (inactive)"
- COMPOUND: "Brc1ccc2[nH]cc(-c3csc(-c4c[nH]c5ccccc45)n3)c2c1"
  EXPERIMENTAL_RESULT: "2.75 µM (inactive)"
- COMPOUND: "C=C(c1nc2ccc(Cl)cc2[nH]c1=O)C(O)c1ccc(C(O)C(=O)c2nc3ccc(Cl)cc3[nH]c2=O)cc1 (stereo not given)"
  EXPERIMENTAL_RESULT: "> 100 µM (inactive)"
- COMPOUND: "O=C1CC2SC(COCc3ccccc3)(CCN2Cc2ccccc2)C1 (stereo not given)"
  EXPERIMENTAL_RESULT: "65 µM (inactive)"

* * *

System: RPMI-8226
MEASUREMENT_PROTOCOL: NCI tumour cell line growth inhibition, 48 h
Active and inactive are the calls of the source. Rule as the data show it: active = GI50 up to about 1.1 µM and inactive = higher.
Labels: active, inactive

- MOLECULE: "CSc1ncnc2c1ncn2CC(=O)C1CCC2C3CCC4=CC(=O)CCC4(C)C3CCC12C (stereo unspecified)"
  CATEGORY_LABEL: "inactive"
- MOLECULE: "COc1ccccc1C12OC(=O)C1(C)Oc1ccccc1C2=O (stereo unspecified)"
  CATEGORY_LABEL: "inactive"
- MOLECULE: "Nc1nc(N)c2cc(Sc3ccc4ccccc4c3)ccc2n1"
  CATEGORY_LABEL: "inactive"
- MOLECULE: "COc1ccccc1/C=C1\\CCC(CN2CCOCC2)C1=O (stereo unspecified)"
  CATEGORY_LABEL: "inactive"
- MOLECULE: "CN(C)CCCN1c2ccccc2CCc2cc([N+](=O)[O-])ccc21"
  CATEGORY_LABEL: "inactive"
- MOLECULE: "Cn1c2ccccc2n2c(N=O)c(-c3ccccc3)nc12"
  CATEGORY_LABEL: "inactive"
- MOLECULE: "c1ccc2c3c([nH]c2c1)C1(CCCCC1)c1c([nH]c2ccccc12)C31CCCCC1"
  CATEGORY_LABEL: "inactive"
- MOLECULE: "C/C(CCOC1CCCCO1)=C(\\C)[Si](C)(C)C (stereo unspecified)"
  CATEGORY_LABEL: "inactive"
- MOLECULE: "O=[N+]([O-])c1ccc2c(c1)nc1n2C(c2c(F)cccc2F)SC1 (stereo unspecified)"
  CATEGORY_LABEL: "inactive"
- MOLECULE: "O=c1c(/C=C/c2c(O)ccc3ccccc23)nnc2sc(-c3cccc([N+](=O)[O-])c3)nn12"
  CATEGORY_LABEL: "inactive"
- MOLECULE: "Oc1cc(-c2cccc(OC(F)(F)F)c2)nc2ccc(N3CCCC3)cc12"
  CATEGORY_LABEL: "active"
